Origin of measurements: patent US20260297080A1

- assayTarget: CDK2/Cyclin E1 (Homo sapiens, UniProt P24941)
- protocol: CDK2/Cyclin E1 Biochemical Assay (TR-FRET), 0.060 mM ATP
- assayConditions: 0.15 μM Rb (Ser780)-biotin substrate, pH7.0, 60 min preincubation, 120 min reaction, room temperature
pIC50: −log10 of the molar value.
metricName: pIC50

| compound | reportedResult |
| --- | --- |
| CC(C)NC(=O)O[C@H]1CC[C@@H](c2cc(Nc3ccc4c(c3F)CN(C3CCN(C)CC3)S4(=O)=O)n[nH]2)C1 (relative stereo) | 8.02 |
| CC(C)NC(=O)O[C@H]1CC[C@@H](c2cc(Nc3ccc4c(c3)S(=O)(=O)NC4C)[nH]n2)C1 (single isomer, unassigned) [Example 5d] | 8.54 |

P. CCCNC(=O)O[C@H]1CC[C@@H](c2cc(Nc3ccc4c(c3F)CS(=O)(=O)N4CCO)n[nH]2)C1 (single isomer, unassigned) [Example 272b]
Q. CC(C)NC(=O)O[C@H]1CC[C@@H](c2cc(Nc3ccc4c(c3F)CN(CC(O)CO)S4(=O)=O)nn2CC(O)CO)C1 (relative stereo)
Pick the one with the larger pIC50: P vs Q Mark your answer with the label of the selected entry. P
(P: 8.52, Q: 5.23)

I. CC[C@H](C)NC(=O)O[C@H]1CC[C@@H](c2cc(Nc3ccc4c(c3F)CN(C3COC3)S4(=O)=O)n[nH]2)C1 (single isomer, unassigned) [Example 134a]
II. CC(C)NC(=O)O[C@H]1CC[C@@H](c2cc(Nc3ccc4c(c3F)CS(=O)(=O)N4CCO)n[nH]2)C1 (single isomer, unassigned) [Example 271b]
Please state the entry with greater pIC50 among I and II . Kindly give the label for the entry you pick. II
